measured-target: human CXCR3A (Homo sapiens (Human))
Sequence (P49682 whole entry): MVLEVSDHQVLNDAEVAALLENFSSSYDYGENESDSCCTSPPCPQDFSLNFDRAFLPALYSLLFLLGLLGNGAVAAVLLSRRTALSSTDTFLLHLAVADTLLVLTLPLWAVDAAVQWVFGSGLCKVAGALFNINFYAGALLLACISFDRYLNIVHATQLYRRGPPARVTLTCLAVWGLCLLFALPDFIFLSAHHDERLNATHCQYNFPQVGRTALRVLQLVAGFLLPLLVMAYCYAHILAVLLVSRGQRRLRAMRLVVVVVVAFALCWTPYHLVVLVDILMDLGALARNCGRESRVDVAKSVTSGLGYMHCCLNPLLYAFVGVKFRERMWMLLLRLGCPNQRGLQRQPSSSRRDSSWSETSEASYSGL
assay-summary: FLIPR assay (CXCL10-induced calcium signal)
conditions-used: CHO-K1 cells expressing human CXCR3A coupled to Galpha(16); CXCL10 agonist 20 nM; mean values
Entries and their measured log10 IC50 follow.
A difference of one corresponds to tenfold IC50; all values are log10 with IC50 in nM.

Below are worked cases with known answers.
>>> experimental_result("CCc1nc(C)nn1CC(=O)N1CCN(c2sc(C(F)(F)F)nc2-c2cnc(C(F)(F)F)nc2)C[C@@H]1CO")
0.56
>>> experimental_result("CC(C)c1ncn(CC(=O)N2CCN(c3sc(C(F)(F)F)nc3-c3cnc(C(F)(F)F)nc3)C[C@H]2CO)n1")
0.26
>>> experimental_result("O=C(Cn1cnc(C(F)F)n1)N1CCN(c2sc(C(F)(F)F)nc2-c2cnc(C(F)(F)F)nc2)C[C@@H]1CO")
0.93
>>> experimental_result("CC(C)(C)c1ncn(CC(=O)N2CCN(c3sc(C(F)(F)F)nc3-c3cnc(C(F)(F)F)nc3)C[C@H]2CO)n1")
0.83
>>> experimental_result("O=C(Cn1cnc(-c2ccccc2)n1)N1CCN(c2sc(C(F)(F)F)nc2-c2cnc(C(F)(F)F)nc2)C[C@@H]1CO")
1.62
>>> experimental_result("Cc1ncn(CC(=O)N2CCN(c3sc(C(F)(F)F)nc3-c3cnc(C(F)(F)F)nc3)C[C@@H]2CO)n1")
0.59

Here is another molecule to look at.
q: Output measured log10 IC50 for this item: CC(O)c1ncn(CC(=O)N2CCN(c3sc(C(F)(F)F)nc3-c3cnc(C(F)(F)F)nc3)C[C@@H]2CO)n1 (stereo partly shown)
a: 0.63
